System: Caco-2 cells
experiment: Membrane permeability test using Caco-2 cells with preincubation
Type: in vitro ADME
protocolConditions: Caco-2 cells, preincubation 20 to 24 hours; apical FaSSIF/HBSS 1% DMSO pH 6.0, basal HBSS 4% BSA pH 7.4; basal sample at 180 minutes
Procedure: The permeability coefficient (Caco-2 Papp (cm/sec)) is calculated using a numerical expression 1. [Expression 1] Papp = (1)/(C1 (0) × S) × (dQ)/(dt) [formula] dQ/dt represents the permeation rate of drug (the amount of drug appearing on the Basal side per unit time), S represents the total surface area of cells, and C1(0) represents the concentration of drug added on the Apical side. […]
Positions of bridges follow the written chain, without caps; N, C: chain ends. Non-standard residues stand in square brackets, D forms with d. Residues, ends and D or L forms follow the SMILES beside them. *: point of attachment. NMeF = CN[C@@H](Cc1ccccc1)C(=O)O; NMeI = CC[C@H](C)[C@H](NC)C(=O)O; NMeD = CN[C@@H](CC(=O)O)C(=O)O; NMeL = CN[C@@H](CC(C)C)C(=O)O; NMeAbu = CC[C@H](NC)C(=O)O; NMeA = CN[C@@H](C)C(=O)O; Piperidide = C1CCN(*)CC1; Sar = CNCC(=O)O; tBu = CC(C)(C)*
Caco2 Papp (10^-6 cm/sec) reference

CC[C@H](C)[C@@H]1NC(=O)[C@H](C)N(C)C(=O)C[C@@H](C(=O)N2CCCCC2)NC(=O)[C@H](CC)N(C)C(=O)[C@H](COC(C)(C)C)NC(=O)[C@H](CC(C)C)N(C)C(=O)[C@H](C)N(C)C(=O)[C@H](CC(C)C)N(C)C(=O)[C@H](Cc2ccccc2)N(C)C(=O)CN(C)C(=O)[C@H]([C@@H](C)O)NC(=O)[C@H](CC(C)C)N(C)C(=O)[C@H](Cc2ccccc2)N(C)C1=O [pd121] ([NMeA]I[NMeF][NMeL]T[Sar][NMeF][NMeL][NMeA][NMeL]S(tBu)[NMeAbu]D-Piperidide; lactam N-13) | 1.02 10^-6 cm/sec

Attention now shifts to the item below.
Form: molecule = CC[C@H](C)[C@@H]1NC(=O)[C@H]([C@@H](C)CC)N(C)C(=O)[C@@H](C)NC(=O)C[C@@H](C(=O)N2CCCCC2)N(C)C(=O)[C@H](C(C)C)NC(=O)[C@H](Cc2ccccc2)N(C)C(=O)[C@H](COC(C)(C)C)NC(=O)[C@H](CC(C)C)N(C)C(=O)[C@H](C)NC(=O)CN(C)C(=O)[C@H](CC(C)C)N(C)C(=O)[C@H](C)N(C)C(=O)[C@H](Cc2ccccc2)N(C)C1=O [pd151] ([dA][NMeI]I[NMeF][NMeA][NMeL][Sar]A[NMeL]S(tBu)[NMeF]V[NMeD]-Piperidide; lactam N-13) ; Caco2 Papp (10^-6 cm/sec) = 0.39 10^-6 cm/sec

====

Caco2 Papp (10^-6 cm/sec) reference
System: Caco-2 cells
experiment: Membrane permeability test using Caco-2 cells with preincubation
Type: in vitro ADME
protocolConditions: Caco-2 cells, preincubation 20 to 24 hours; apical FaSSIF/HBSS 1% DMSO pH 6.0, basal HBSS 4% BSA pH 7.4; basal sample at 180 minutes
Starred links: 1 amine or outer side, 2 acyl side, 3 side chain; linkers in the order of their positions; H or OH if unused. Positions of bridges follow the written chain, without caps; N, C: chain ends. Non-standard residues stand in square brackets, D forms with d. Residues, ends and D or L forms follow the SMILES beside them. *: point of attachment. NMeF = CN[C@@H](Cc1ccccc1)C(=O)O; NMeI = CC[C@H](C)[C@H](NC)C(=O)O; NMeT = CN[C@H](C(=O)O)[C@@H](C)O; NMeβAla = CN(CCC(=O)[*:2])[*:1]; NMeD = CN[C@@H](CC(=O)O)C(=O)O; NMeL = CN[C@@H](CC(C)C)C(=O)O; NMeV = CN[C@H](C(=O)O)C(C)C; d(β3hA) = C[C@@H](N)CC(=O)O; NMeAbu = CC[C@H](NC)C(=O)O; NMeA = CN[C@@H](C)C(=O)O; Piperidide = C1CCN(*)CC1; Abu = CC[C@H](N)C(=O)O; Sar = CNCC(=O)O; tBu = CC(C)(C)*

Example entries begin here.
CC[C@H]1C(=O)N(C)[C@@H](C)C(=O)N(C)[C@@H](C(C)C)C(=O)N[C@H](C)CC(=O)N[C@H](C(C)C)C(=O)N(C)[C@@H](CC(C)C)C(=O)N[C@@H](CC(C)C)C(=O)N(C)[C@@H](C(C)C)C(=O)N(C)[C@@H](CC(C)C)C(=O)N(C)CC(=O)N[C@@H]([C@@H](C)O)C(=O)N(C)[C@@H](Cc2ccccc2)C(=O)N[C@@H](COC(C)(C)C)C(=O)N1C [pd131] (cyclo(L[NMeV][NMeL][Sar]T[NMeF]S(tBu)[NMeAbu][NMeA][NMeV][d(β3hA)][dV][NMeL])) | 2.18 10^-6 cm/sec
CC[C@@H]1NC(=O)[C@H](CC(C)C)N(C)C(=O)[C@H](C)NC(=O)CN(C)C(=O)[C@H](CC(C)C)N(C)C(=O)CCN(C)C(=O)[C@H](Cc2ccccc2)N(C)C(=O)[C@H]([C@@H](C)CC)NC(=O)[C@H]([C@@H](C)CC)N(C)C(=O)[C@@H](C)NC(=O)C[C@@H](C(=O)N2CCCCC2)N(C)C(=O)[C@H](Cc2ccccc2)N(C)C(=O)[C@H](C(C)C)NC(=O)[C@H](C)N(C)C1=O [pd076] ([dA][NMeI]I[NMeF][NMeβAla][NMeL][Sar]A[NMeL][Abu][NMeA]V[NMeF][NMeD]-Piperidide; lactam N-14) | <0.10 10^-6 cm/sec
CC[C@H](C)[C@@H]1NC(=O)[C@H](Cc2ccccc2)N(C)C(=O)[C@H](CC(C)C)N(C)C(=O)[C@H](CC(C)C)NC(=O)[C@H](C)N(C)C(=O)C[C@@H](C(=O)N2CCCCC2)N(C)C(=O)[C@H](C)N(C)C(=O)[C@H](CC(C)C)NC(=O)[C@H](CC(C)C)N(C)C(=O)CNC(=O)[C@H]([C@@H](C)CC)N(C)C(=O)[C@H](Cc2ccccc2)N(C)C(=O)[C@H](C)NC1=O [pd152] ([NMeA]L[NMeL][NMeF]IA[NMeF][NMeI]G[NMeL]L[NMeA][NMeD]-Piperidide; lactam N-13) | 1.02 10^-6 cm/sec

Attention now shifts to the item below.
Form: molecule = CC[C@@H]1NC(=O)[C@H](Cc2ccccc2)N(C)C(=O)[C@H](COC(C)(C)C)NC(=O)[C@H](CC(C)C)N(C)C(=O)[C@H](CC(C)C)NC(=O)[C@H](C)N(C)C(=O)C[C@@H](C(=O)N2CCCCC2)N(C)C(=O)[C@H](CC(C)C)N(C)C(=O)[C@H]([C@@H](C)CC)NC(=O)[C@H](Cc2ccccc2)N(C)C(=O)[C@H]([C@@H](C)O)N(C)C(=O)[C@H](CC)N(C)C(=O)[C@H](CC(C)C)NC(=O)CN(C)C1=O [pd091] ([NMeA]L[NMeL]S(tBu)[NMeF][Abu][Sar]L[NMeAbu][NMeT][NMeF]I[NMeL][NMeD]-Piperidide; lactam N-14) ; Caco2 Papp (10^-6 cm/sec) = 0.11 10^-6 cm/sec

====

microsomal CLint at 1 µM reference
experiment: Metabolic stability test: liver microsomal stability assay
Format: in vitro ADME, mouse
protocolConditions: male, pH 7.4; mouse liver microsomes 0.5 mg protein/mL, compound 1 µM, presence of NADPH; read-out: Mouse Hepatic Microsome CLh,int NADPH(+)
Starred links: 1 amine or outer side, 2 acyl side, 3 side chain; linkers in the order of their positions; H or OH if unused. Positions of bridges follow the written chain, without caps; N, C: chain ends. Non-standard residues stand in square brackets, D forms with d. Residues, ends and D or L forms follow the SMILES beside them. *: point of attachment. NMedβ3hAla = C[C@H](CC(=O)[*:2])N(C)[*:1]; NMeF = CN[C@@H](Cc1ccccc1)C(=O)O; NMeGABA = CN(CCCC(=O)[*:2])[*:1]; NMeI = CC[C@H](C)[C@H](NC)C(=O)O; NMeT = CN[C@H](C(=O)O)[C@@H](C)O; hPhe = N[C@@H](CCc1ccccc1)C(=O)O; NMeL = CN[C@@H](CC(C)C)C(=O)O; NMeV = CN[C@H](C(=O)O)C(C)C; d(β3hA) = C[C@@H](N)CC(=O)O; NMeAbu = CC[C@H](NC)C(=O)O; NMeA = CN[C@@H](C)C(=O)O; Piperidide = C1CCN(*)CC1; Abu = CC[C@H](N)C(=O)O; Sar = CNCC(=O)O; tBu = CC(C)(C)*
// return numeric value only (unit: µL/min/mg, not printed)

Example entries begin here.
CC[C@H](C)[C@@H]1NC(=O)[C@H](C)N(C)C(=O)[C@H]([C@@H](C)O)N(C)C(=O)[C@H](CC(C)C)N(C)C(=O)[C@H]([C@@H](C)CC)NC(=O)[C@H](Cc2ccccc2)N(C)C(=O)[C@H](Cc2ccccc2)N(C)C(=O)[C@H](C)NC(=O)[C@H](COC(C)(C)C)NC(=O)[C@H](CC)N(C)C(=O)[C@H](C(C)C)NC(=O)CCCN(C)C(=O)C[C@@H](C)NC(=O)[C@H](C(C)C)N(C)C1=O [pd050] (cyclo(A[NMeF][NMeF]I[NMeL][NMeT][NMeA]I[NMeV][d(β3hA)][NMeGABA]V[NMeAbu]S(tBu))) | 13.2
CC[C@H](C)[C@@H]1NC(=O)[C@H](CC(C)C)N(C)C(=O)[C@H](CC(C)C)NC(=O)[C@H](C)N(C)C(=O)C[C@@H](C(=O)N2CCCCC2)NC(=O)[C@H](CC(C)C)NC(=O)[C@@H]2CCCN2C(=O)[C@H](CC(C)C)N(C)C(=O)[C@H]([C@@H](C)O)NC(=O)[C@H]([C@@H](C)CC)N(C)C(=O)[C@H](Cc2ccccc2)N(C)C(=O)[C@H](C)NC(=O)[C@H](Cc2ccccc2)N(C)C(=O)[C@H](CC(C)C)NC1=O [pd027] ([NMeA]L[NMeL]IL[NMeF]A[NMeF][NMeI]T[NMeL]PLD-Piperidide; lactam N-14) | 42.4
CC[C@H](C)[C@@H]1NC(=O)[C@H](CC(C)C)N(C)C(=O)[C@H](CC(C)C)NC(=O)[C@H](C)N(C)C(=O)C[C@@H](C)NC(=O)[C@H](CC(C)C)NC(=O)[C@H](CC(C)C)N(C)C(=O)CN(C)C(=O)[C@H](C(C)C)NC(=O)[C@H]([C@@H](C)CC)N(C)C(=O)[C@H](CC(C)C)N(C)C(=O)[C@H](C)NC(=O)[C@H](Cc2ccccc2)N(C)C1=O [pd127] (cyclo(A[NMeL][NMeI]V[Sar][NMeL]L[d(β3hA)][NMeA]L[NMeL]I[NMeF])) | 41.6
CC[C@@H]1NC(=O)[C@H](Cc2ccccc2)N(C)C(=O)[C@H](C)N(C)C(=O)[C@H](CC(C)C)N(C)C(=O)[C@H](CC(C)C)NC(=O)CCCN(C)C(=O)C[C@@H](C(=O)N2CCCCC2)NC(=O)[C@H](CC(C)C)N(C)C(=O)[C@H](C)N(C)C(=O)[C@H]([C@@H](C)O)NC(=O)[C@H](CC(C)C)N(C)C(=O)[C@H](COC(C)(C)C)NC(=O)[C@H](Cc2ccccc2)N(C)C1=O [pd109] ([NMeGABA]L[NMeL][NMeA][NMeF][Abu][NMeF]S(tBu)[NMeL]T[NMeA][NMeL]D-Piperidide; lactam N-13) | 40.6

Form: compound = CC[C@H](C)[C@@H]1NC(=O)[C@@H]2CCCN2C(=O)[C@H](CC(C)C)N(C)C(=O)[C@H](CC(C)C)NC(=O)[C@H]([C@@H](C)CC)N(C)C(=O)[C@H]([C@@H](C)O)NC(=O)[C@H](Cc2ccccc2)N(C)C(=O)[C@H](CC)N(C)C(=O)[C@H](Cc2ccccc2)N(C)C(=O)[C@H](C(C)C)NC(=O)[C@H](CC(C)C)N(C)C(=O)[C@H](C)N(C)C(=O)C[C@@H](C(=O)N2CCCCC2)NC(=O)[C@H](C(C)C)N(C)C1=O [pd043] ([NMeA][NMeL]V[NMeF][NMeAbu][NMeF]T[NMeI]L[NMeL]PI[NMeV]D-Piperidide; lactam N-14) ; microsomal CLint at 1 µM = 40.7

Form: compound = CC(C)C[C@@H]1NC(=O)[C@H](CC(C)C)N(C)C(=O)[C@H](C(C)C)N(C)C(=O)[C@H](CCc2ccccc2)NC(=O)[C@H]([C@@H](C)O)N(C)C(=O)[C@@H](C(C)C)NC(=O)C[C@@H](C(=O)N2CCCCC2)NC(=O)[C@H](C(C)C)N(C)C(=O)[C@H](CC(C)C)NC(=O)[C@H](Cc2ccccc2)N(C)C(=O)[C@@H]2CCCN2C(=O)[C@H](C(C)C)NC(=O)[C@H](CC(C)C)N(C)C(=O)CN(C)C1=O [pd032] ([dV][NMeT][hPhe][NMeV][NMeL]L[Sar][NMeL]VP[NMeF]L[NMeV]D-Piperidide; lactam N-14) ; microsomal CLint at 1 µM = 28.9

Form: compound = CC[C@H](C)[C@@H]1NC(=O)[C@H](CC(C)C)N(C)C(=O)CCCN(C)C(=O)C[C@@H](C)N(C)C(=O)[C@H](CC(C)C)NC(=O)[C@H](CC)N(C)C(=O)[C@H](C(C)C)N(C)C(=O)[C@H](C)N(C)C(=O)[C@H](CC(C)C)N(C)C(=O)[C@H](COC(C)(C)C)NC(=O)[C@H](Cc2ccccc2)N(C)C(=O)[C@H](Cc2ccccc2)N(C)C(=O)CN(C)C1=O [pd143] (cyclo(I[Sar][NMeF][NMeF]S(tBu)[NMeL][NMeA][NMeV][NMeAbu]L[NMedβ3hAla][NMeGABA][NMeL])) ; microsomal CLint at 1 µM = 39.3

Form: compound = CC[C@H](C)[C@@H]1NC(=O)[C@H](C)N(C)C(=O)CCCN(C)C(=O)C[C@@H](C)NC(=O)[C@H](C(C)C)N(C)C(=O)[C@H](CC(C)C)N(C)C(=O)[C@H](C)N(C)C(=O)[C@H]([C@@H](C)O)N(C)C(=O)[C@H](CCc2ccccc2)NC(=O)[C@H](C(C)C)NC(=O)[C@H](Cc2ccccc2)N(C)C(=O)[C@H](CC)N(C)C(=O)[C@H](C)N(C)C(=O)[C@H](C(C)C)N(C)C1=O [pd059] (cyclo(I[NMeV][NMeA][NMeAbu][NMeF]V[hPhe][NMeT][NMeA][NMeL][NMeV][d(β3hA)][NMeGABA][NMeA])) ; microsomal CLint at 1 µM = 12.7

The reported measurements were obtained from patent EP4768499A1.
